# assay.summary: HepG2 cytotoxicity, primary screen, cytotoxicity control for P. falciparum antimalarial project, cell-based, ATP luminescence (AID 2303)
# condition.label: HepG2 viability, 24-48 h, at 10 µM, stronger effect = higher value
inhibition under 40% gets met, anything at or over 40% gets not met.

{"columns": ["molecule", "category"],
 "data": [
  ["O=C(Nc1cc(Cl)ccc1O)c1cnn2c(C(F)(F)F)cc(-c3cccs3)nc12", "met"],
  ["COc1ccc(C2C(C(=O)Nc3ccc(C)c(F)c3)c3cc(OC)c(OC)cc3C(=O)N2C)cc1 (centres undefined)", "met"],
  ["Fc1ccc2nc(-c3ccc(-c4ccc(CN5CCC(CCN6CCCCC6)CC5)cc4)s3)[nH]c2c1", "not met"],
  ["COc1ccc(-c2ccc(NC(=O)c3cccc(C#N)c3)cc2)cc1CN1CCC(O)CC1", "met"],
  ["O=C(NC1CCN(CCCc2ccccc2)CC1)c1ccc(-c2cccc(C(F)(F)F)c2)s1", "not met"],
  ["Cc1cccc2[nH]c(-c3cccc(-c4cccc(C(=O)NCc5nccn5C)c4)c3)nc12", "met"],
  ["Cc1cc(NC2CCCC2)nc(Nc2ccc(F)cc2)n1", "met"],
  ["COc1ccc(CN2CCCN(Cc3cccc(NC(=O)c4ccc(Cl)c(Cl)c4)c3)CC2)cc1", "met"]
]}
